# Test system: MOLM-13
# test_method_notes: cells
# condition: Homo sapiens, MOLM-13, 72 h
attribute_measured: IC50 (nM)
// units = nM; emit number, no label

The value of IC50 measured for the compound `CC(=O)Nc1ccc(-n2cnc3cc(-c4ccc(OCCN5CCCCC5)cc4)ccc32)cc1` turned out to be 38.8

====

# target_under_test: Receptor-type tyrosine-protein kinase FLT3 (Homo sapiens)
attribute_measured: IC50 (nM)
Output spec: scalar in nM, unitless text.

Tested on Receptor-type tyrosine-protein kinase FLT3 (Homo sapiens): `CC(=O)Nc1ccc(-n2cnc3cc(-c4ccc(OCCN5CCCCC5)cc4)ccc32)cc1` . Observed IC50: 43.8

====

# target_under_test: Receptor-type tyrosine-protein kinase FLT3 (Homo sapiens, UniProt P36888)
# Format: cell-based, RS4-11
attribute_measured: IC50

// IC50 value for `CCc1nc(C(N)=O)c(Cc2ccc(N3CCC(N4CCN(C)CC4)CC3)c(OC)c2)nc1CN1CCOCC1` : 0.29 nM

====

# System: MV4-11
# test_method_notes: cells
# condition: Homo sapiens, MV4-11, 72 h
attribute_measured: IC50 (µM)
Express it in µM; write the number only.

Hey, MV4-11 data for `CC(=O)Nc1ccc(-n2cnc3cc(-c4ccc(OCCN5CCCCC5)cc4)ccc32)cc1` : IC50 came out at 0.0549

====

# target_under_test: Receptor-type tyrosine-protein kinase FLT3 (Homo sapiens, UniProt P36888, ITD)
attribute_measured: pIC50
// pIC50: -log10(molar conc.)

Sample `CC(=O)Nc1ccc(-n2cnc3cc(-c4ccc(OCCN5CCCCC5)cc4)ccc32)cc1` , system: Receptor-type tyrosine-protein kinase FLT3 (Homo sapiens, UniProt P36888, ITD). Its pIC50 is 7.01

====

# target_under_test: Receptor-type tyrosine-protein kinase FLT3 (Homo sapiens, UniProt P36888, D835Y)
attribute_measured: pIC50
In textbook form, pIC50 equals minus log to base ten of the concentration in mol/L.

For the compound `CC(=O)Nc1ccc(-n2cnc3cc(-c4ccc(OCCN5CCCCC5)cc4)ccc32)cc1` , the measured pIC50 on Receptor-type tyrosine-protein kinase FLT3 (Homo sapiens, UniProt P36888, D835Y) was 7.03

====

# target_under_test: Receptor-type tyrosine-protein kinase FLT3 (Homo sapiens, UniProt P36888, ITD)
# Assay type: cell-based, MV4-11
attribute_measured: IC50 (nM)
Just the number in nM, nothing appended.

The recorded IC50 for `CCc1nc(C(N)=O)c(Cc2ccc(N3CCC(N4CCN(C)CC4)CC3)c(OC)c2)nc1CN1CCOCC1` is 1.8

====

# target_under_test: High affinity nerve growth factor receptor (Homo sapiens, UniProt P04629)
# Sequence (P04629 whole entry): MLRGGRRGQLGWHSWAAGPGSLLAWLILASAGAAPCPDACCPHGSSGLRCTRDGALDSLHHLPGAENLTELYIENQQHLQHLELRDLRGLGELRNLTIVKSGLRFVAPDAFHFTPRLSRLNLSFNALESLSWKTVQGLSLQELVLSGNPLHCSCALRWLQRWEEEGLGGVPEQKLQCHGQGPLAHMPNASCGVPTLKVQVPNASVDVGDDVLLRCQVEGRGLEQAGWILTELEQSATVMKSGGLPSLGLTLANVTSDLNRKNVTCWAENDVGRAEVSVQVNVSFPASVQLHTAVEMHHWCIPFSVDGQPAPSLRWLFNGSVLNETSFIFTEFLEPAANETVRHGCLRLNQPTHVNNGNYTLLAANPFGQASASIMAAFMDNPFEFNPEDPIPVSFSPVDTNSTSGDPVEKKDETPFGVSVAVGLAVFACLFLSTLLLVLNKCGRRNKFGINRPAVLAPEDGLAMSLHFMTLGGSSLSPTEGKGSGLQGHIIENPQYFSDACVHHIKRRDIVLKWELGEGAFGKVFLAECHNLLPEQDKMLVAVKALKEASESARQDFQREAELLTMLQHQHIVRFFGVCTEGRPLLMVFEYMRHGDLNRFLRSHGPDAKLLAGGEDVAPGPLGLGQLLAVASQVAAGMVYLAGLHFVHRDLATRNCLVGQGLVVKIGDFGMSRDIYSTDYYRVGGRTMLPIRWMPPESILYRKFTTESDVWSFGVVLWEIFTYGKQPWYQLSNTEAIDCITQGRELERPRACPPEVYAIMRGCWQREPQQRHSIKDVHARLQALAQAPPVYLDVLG
attribute_measured: IC50 (nM)
The reply should contain only the number, in nM.

Value of IC50 reported for the compound `CC(=O)Nc1ccc(-n2cnc3cc(-c4ccc(OCCN5CCCCC5)cc4)ccc32)cc1` is 23.6
